# system.under.test: α-amylase from Thermoalcalibacter bogoriae (Anaerobranca gottschalkii)
# Sequence (Q5I942 24-532): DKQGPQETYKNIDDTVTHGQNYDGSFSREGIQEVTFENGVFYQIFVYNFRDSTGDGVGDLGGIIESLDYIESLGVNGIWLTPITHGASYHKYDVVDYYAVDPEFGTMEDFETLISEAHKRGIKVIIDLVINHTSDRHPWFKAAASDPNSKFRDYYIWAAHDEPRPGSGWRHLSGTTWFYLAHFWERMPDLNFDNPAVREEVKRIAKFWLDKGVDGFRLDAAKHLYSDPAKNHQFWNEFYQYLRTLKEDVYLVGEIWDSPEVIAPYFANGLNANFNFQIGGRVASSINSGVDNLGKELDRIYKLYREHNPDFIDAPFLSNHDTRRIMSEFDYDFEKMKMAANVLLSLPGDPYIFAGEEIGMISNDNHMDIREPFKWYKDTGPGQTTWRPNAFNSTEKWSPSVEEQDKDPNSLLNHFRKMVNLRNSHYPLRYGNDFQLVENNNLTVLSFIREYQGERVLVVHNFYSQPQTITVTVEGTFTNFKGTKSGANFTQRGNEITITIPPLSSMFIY
# assay.procedure: Effect of metal ions and chemical reagents on amylase activity
# Assay type: biochemical
# conditions.used: pH 8.0, 65° C., 5 mM
measured.metric: effect of chemical reagents on amylase activity at 5 mM

> print(dat)
                                molecule                         system.under.test     measured.value
1  OC(CS)C(O)CS (stereo not shown) [DTT]  α-amylase from Thermoalcalibacter bogoriae (Anaerobranca gottschalkii)  totally inhibited
2          CCCCCCCCCCCCOS(=O)(=O)O [SDS]  α-amylase from Thermoalcalibacter bogoriae (Anaerobranca gottschalkii)  totally inhibited
